Every entry's value here was drawn from patent US20240026037A1.

Target: T1, Human GPA33 on GPA33+ colorectal cancer cell lines (Colo 205, LS 174T, SW 1222) (human, UniProt Q99795 22-319)
T1 construct: Endogenous GPA33 on human colorectal cancer cell lines; also called surface human GPA33; GPA33+ tumor cell lines
T1 sequence: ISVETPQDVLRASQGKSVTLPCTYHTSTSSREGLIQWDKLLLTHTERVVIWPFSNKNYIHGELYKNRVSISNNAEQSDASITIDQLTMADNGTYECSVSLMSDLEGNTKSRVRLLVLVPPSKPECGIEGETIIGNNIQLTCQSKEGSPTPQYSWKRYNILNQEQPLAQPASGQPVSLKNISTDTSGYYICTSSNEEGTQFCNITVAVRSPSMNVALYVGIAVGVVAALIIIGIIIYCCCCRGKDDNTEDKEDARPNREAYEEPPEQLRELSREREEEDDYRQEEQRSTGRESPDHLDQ
Assay: cell binding to LS174T Luc cells; IgG format
EXPERIMENTAL_READOUT: EC50 (mg/L)
Hi! Could you send only the number? It should be in mg/L, unit omitted.

Requested read-out: EC50. Entry: G3A_VK7+VH3 (antibody, V domains shown) VH: EVQLVESGGGLVKPGGSLRLSCAASGFAFSTYDMSWVRQAPGKGLEWVATISSGGSYTYYADSVKGRFTISRDSAKNSLYLQMNSLRAEDTAVYYCAPTTVVPFAYWGQGTLVTVSA VL: DIQMTQSPSSLSASVGDRVTITCKASQNVRTVVAWYQQKPGKAPKRLIYLASNRHTGVPSRFSGSGSGTEFTLTISNVQPEDFATYYCLQHWSYPLTFGSGTKLEVK
0.768

Requested read-out: EC50. Entry: G3A_VK6+VH3 (antibody, V domains shown) VH: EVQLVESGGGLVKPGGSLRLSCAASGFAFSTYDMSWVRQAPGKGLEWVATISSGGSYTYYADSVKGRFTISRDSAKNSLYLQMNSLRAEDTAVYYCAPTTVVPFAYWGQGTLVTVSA VL: DIQMTQSPSSLSASVGDRVTITCKASQNVRTVVAWYQQKPGKAPKRLIYLASNRHTGVPSRFSGSGSGTEFTLTISNLQPEDFATYFCLQHWSYPLTFGSGTKLEVK
0.847

Requested read-out: EC50. Entry: G3A_VK7+VH2 (antibody, V domains shown) VH: EVQLVESGGGLVKPGGSLRLSCAASGFAFSTYDMSWVRQAPGKGLEWVATISSGGSYTYYLDSVKGRFTISRDSAKNSLYLQMNSLRAEDTAVYYCAPTTVVPFAYWGQGTLVTVSA VL: DIQMTQSPSSLSASVGDRVTITCKASQNVRTVVAWYQQKPGKAPKRLIYLASNRHTGVPSRFSGSGSGTEFTLTISNVQPEDFATYYCLQHWSYPLTFGSGTKLEVK
0.576

Requested read-out: EC50. Entry: G3A_VK8+VH2 (antibody, V domains shown) VH: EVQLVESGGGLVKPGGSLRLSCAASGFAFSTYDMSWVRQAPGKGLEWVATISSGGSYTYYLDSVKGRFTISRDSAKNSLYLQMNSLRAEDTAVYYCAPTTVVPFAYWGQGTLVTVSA VL: DIQMTQSPSSLSASVGDRVTITCKASQNVRTVVAWYQQKPGKAPKRLIYLASNRHTGVPSRFSGSGSGTEFTLTISNLQPEDFADYYCLQHWSYPLTFGSGTKLEVK
1.09
